Cited source: patent US20250270287A1

Tested System: T1, Activin B (UniProt P09529 293-407)
T1 sequence (looked up): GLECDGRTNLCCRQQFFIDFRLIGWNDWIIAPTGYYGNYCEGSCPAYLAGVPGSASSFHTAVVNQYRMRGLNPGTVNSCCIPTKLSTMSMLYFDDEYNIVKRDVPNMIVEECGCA
Measurement Notes: cell-based or functional assay
Quick reference for IC50, SBE-luciferase reporter in HEK293 cells among some binders
Readout Type: IC50, SBE-luciferase reporter in HEK293 cells (µg/mL)

{"Binder": "ActRIIA-B3 (SEQ ID NO: 97) chimera-Fc protein (Fc fusion, Tested as chimera-Fc protein; not shown: linker (if any) and Fc domain) GAILGRSETQECLFFNANWEKDRTNQTGVEPCYGDKDKRLHCYASWRNSSGSIEIVKQGCWLDDINCYDRTDCVEKKDSPEVYFCCCEGNMCNEKFSYFPEMEVTQPTS", "Value Measured": 0.071}
{"Binder": "ActRIIA-A1 (SEQ ID NO: 104) chimera-Fc protein (Fc fusion, Tested as chimera-Fc protein; not shown: linker (if any) and Fc domain) GRGEAETRECLFFNANWEKDRTNQTGVEPCYGDKDKRRHCFATWKNISGSIEIVKQGCWLDDINCYDRTDCVEKKDSPEVYFCCCEGNMCNEKFSYFPEMEVTQPTS", "Value Measured": 0.21}
{"Binder": "ActRIIA-A8 (SEQ ID NO: 110) chimera-Fc protein (Fc fusion, Tested as chimera-Fc protein; not shown: linker (if any) and Fc domain) GAILGRSETQECLFFNANWEKDRTNQTGVEPCYGDKDKRRHCFATWKNISGSIEIVKQGCWLDDINCYDRTDCVEKKDSPEVYFCCCEGNMCNEKFSYFPEAGGPEVTYEPPPTAPT", "Value Measured": 0.1}
